# System: LOX IMVI melanoma
# testSummary: NCI tumour cell line growth inhibition, 48 h
metric: TGI

Sample CC1OC(OC2C(O[C@H]3CC[C@@]4(C)[C@@H](CC[C@@H]5[C@@H]4CC[C@]4(C)[C@@H]6[C@H](C[C@@H]54)O[C@]4(CC[C@@H](C)CO4)[C@H]6C)C3)OC(CO)C(OC3OC(CO)C(O)C(OC4OCC(O)C(O)C4O)C3OC3OCC(O)C(O)C3O)C2O)C(O)C(O)C1O (stereo partly drawn) — what was its TGI?
2.91 µM

Can you handle CCn1cc(/C=C/C(C)c2cn(CC)c(=O)[nH]c2=O)c(=O)[nH]c1=O (stereo not drawn) next?
> 100 µM

Lookup `CCC[CH2][Sn]([CH2]CCC)([O]C(=O)c1cc(F)cc(F)c1)[O]C(=O)c1cc(F)cc(F)c1`
1.91 µM

And what about the compound `CCCCCCCCCCCCCCCCCC1=NCCN1CS(=O)(=O)O` ?
12.5 µM

Would you mind doing CC1=C2c3c(C)ccc4ccc(C)c(c34)C2(O)C(C)C1=O (stereo not drawn) as well?
> 100 µM

Can you check `CC(C)(C)c1ccc(-c2nc3ccc([N+](=O)[O-])cc3c(=O)o2)cc1` next?
29.9 µM

Now give it for `O=[N+]([O-])c1ccc(-c2nc(-c3ccccc3)c(-c3ccccc3)n2-c2ccccc2)cc1` too.
6.86 µM

Next: `O=C(NNC(=S)Nc1ccccc1)c1ccccc1Nc1ccccc1C(=O)NNC(=S)Nc1ccccc1`
26 µM

Same for `CC(=O)O/N=C/c1ncccc1OC(C)=O`
> 100 µM

Moving on to the next compound: `CCOC(=O)c1csc(NC(=O)CCN2CCCCC2)n1`
> 100 µM

How about `Nc1c(-c2nc3ccccc3s2)c2ccc([N+](=O)[O-])cc2c(=O)n1-c1cccc(C(=O)O)c1` ?
> 100 µM

Same thing, different compound: `C=C(C)[C@@H]1CC[C@]2(C)[C@H](C(=O)C=C3[C@@H]4C[C@](C)(C(=O)N5CCN(C)CC5)CC[C@]4(C)CC[C@]32C)[C@@]1(C)CCC#N`
12.6 µM

Can you check `CSc1cnn(CCC#N)c(=O)n1` next?
> 100 µM

Proceed to `CC(=O)c1ccc(NC(=O)CSc2nnc(-c3cc(-c4ccc(C)cc4)nc4ccccc34)o2)cc1`
9.09 µM

One more compound: CC1(C)CC(=O)C2=C(C1)c1c(ccc3ccccc13)NC2c1cn(Cc2ccc(Cl)cc2)c2ccccc12 (stereo not drawn)
> 100 µM

Consider next the compound `CC(=O)C(=[N+]=[N-])C(=O)OC(C)(C)C#N` in the same way.
> 10 µM

Try this compound next: O=C(O)C1C(C(=O)Nc2ccc3c(c2)Cc2ccccc2-3)C2(Cl)C(Cl)=C(Cl)C1(Cl)C2(Cl)Cl (stereo not drawn)
32.3 µM

// repeat for `COc1ccc(NC(=O)n2nc(N)c3ccccc32)cc1OC` and report
> 100 µM
